System: Staphylococcus aureus
Experiment: Antibacterial activity against Staphylococcus aureus ATCC 6538P assessed as growth inhibition by M7-A6 method
Assay type: functional
Counter-ions that a name gives are not always drawn.
The label YES is reserved for MIC strictly under 70 µM; NO covers values equal to or above it.

1. COc1cc(C(=N)N)cc(OC)c1OCCN(CCOc1c(OC)cc(C(=N)N)cc1OC)S(=O)(=O)c1ccc(N)cc1 : NO
2. N=C(N)c1ccc(OCCN(CCOc2ccc(C(=N)N)cc2)S(=O)(=O)c2ccccc2)cc1 : YES
3. COc1cc(C(=N)N)ccc1OCCN(CCOc1ccc(C(=N)N)cc1OC)S(=O)(=O)c1ccc(NC(C)=O)cc1 : NO
4. Cl.N=C(N)c1ccc(SCCOCCSc2ccc(C(=N)N)cc2)cc1 : NO
5. COc1cc(C(=N)N)cc(OC)c1OCCCCCOc1c(OC)cc(C(=N)N)cc1OC : YES
6. Cl.c1cc(C2=NCCN2)ccc1OCCSCCOc1ccc(C2=NCCN2)cc1 : NO
7. N=C(N)c1ccc(OCCCCCOc2ccc(C(=N)N)cc2)cc1 [PENTAMIDINE HYDROCHLORIDE] : YES
8. COc1cc(C(=N)N)cc(OC)c1OCCN(C)CCOc1c(OC)cc(C(=N)N)cc1OC : NO

* * *

Assay: Cytotoxicity against human A549 cells assessed as cell viability at 10 ug/ml after 48 hrs by MTT assay
Type: cell-based
Details: read-out: Activity
Here, each record is paired with measured viability at 48 h, 10 ug/ml data.
reported metric: viability at 48 h, 10 ug/ml (%)

1. Cl.c1cc(C2=NCCN2)ccc1OCCSCCOc1ccc(C2=NCCN2)cc1 : 80.3
2. Cl.N=C(N)c1ccc(SCCOCCSc2ccc(C(=N)N)cc2)cc1 : 77.1
3. CCCCNC(=N)c1ccc(OCCSCCOc2ccc(C(=N)NCCCC)cc2)cc1.Cl : 89.3
4. Cl.N=C(NC1CCCCC1)c1ccc(OCCSCCOc2ccc(C(=N)NC3CCCCC3)cc2)cc1 : 84.6

* * *

Test system: Bacillus subtilis
Experiment: Antibacterial activity against Bacillus subtilis ATCC 6633 assessed as growth inhibition by M7-A6 method
Type: functional
// reported MIC per item
reported metric: MIC (µM)

1. COc1cc(C(=N)N)cc(OC)c1OCCOCCOc1c(OC)cc(C(=N)N)cc1OC : 420
2. N=C(N)c1ccc(OCCSCCOc2ccc(C(=N)N)cc2)cc1 : 140
3. CN(CCCCCN(C)c1ccc(C(=N)N)cc1)c1ccc(C(=N)N)cc1 : 98
4. COc1cc(C(=N)N)ccc1OCCN(CCOc1ccc(C(=N)N)cc1OC)S(=O)(=O)c1ccccc1 : 42

* * *

Tested on: Aspergillus brasiliensis
Assay: Antifungal activity against Aspergillus brasiliensis ATCC 16404 assessed as growth inhibition by M7-A6 method
Type: functional
reported metric: MIC

1) COc1cc(C(=N)N)cc(OC)c1OCCN(CCOc1c(OC)cc(C(=N)N)cc1OC)S(=O)(=O)c1ccc(N)cc1 : > 12.8 mM
2) N=C(N)c1ccc(OCCOCCOc2ccc(C(=N)N)cc2)cc1 : > 22.2 mM
3) Cl.c1cc(C2=NCCN2)ccc1OCCSCCOc1ccc(C2=NCCN2)cc1 : > 1.96 mM

* * *

The entries below are paired with their reported MIC.
Test system: Pseudomonas aeruginosa
Experiment: Antibacterial activity against Pseudomonas aeruginosa ATCC 15442 assessed as growth inhibition by M7-A6 method
Type: functional
reported metric: MIC

1) CN(CCCCCN(C)c1ccc(C(=N)N)cc1)c1ccc(C(=N)N)cc1 : > 19.6 mM
2) COc1cc(C(=N)N)ccc1OCCN(C)CCOc1ccc(C(=N)N)cc1OC : > 16.3 mM
3) COc1cc(C(=N)N)ccc1OCCOCCOc1ccc(C(=N)N)cc1OC : > 21 mM
4) N=C(N)c1ccc(OCCOCCOc2ccc(C(=N)N)cc2)cc1 : 11.1 mM
5) COc1cc(C(=N)N)ccc1OCCN(CCOc1ccc(C(=N)N)cc1OC)S(=O)(=O)c1ccccc1 : 7.38 mM
6) COc1cc(C(=N)N)cc(OC)c1OCCN(C)CCOc1c(OC)cc(C(=N)N)cc1OC : > 15.2 mM
7) Cl.c1cc(C2=NCCN2)ccc1OCCSCCOc1ccc(C2=NCCN2)cc1 : > 1.96 mM
8) CN(CCOc1ccc(C(=N)N)cc1)CCOc1ccc(C(=N)N)cc1 : > 21.1 mM
9) COc1cc(C(=N)N)ccc1OCCN(CCOc1ccc(C(=N)N)cc1OC)S(=O)(=O)c1ccc(NC(C)=O)cc1 : 7.16 mM
